molecular target: MMP-1 (Homo sapiens, UniProt P03956); construct: made in house; host or cells: MMP-1-transfected HT-1080 cells (spent media); test: MMP-1 inhibition (in vitro Ki); assay type: biochemical; settings: Table 10; read-out: MMP-1 Ki
Sequence (P03956 100-469, species assumed): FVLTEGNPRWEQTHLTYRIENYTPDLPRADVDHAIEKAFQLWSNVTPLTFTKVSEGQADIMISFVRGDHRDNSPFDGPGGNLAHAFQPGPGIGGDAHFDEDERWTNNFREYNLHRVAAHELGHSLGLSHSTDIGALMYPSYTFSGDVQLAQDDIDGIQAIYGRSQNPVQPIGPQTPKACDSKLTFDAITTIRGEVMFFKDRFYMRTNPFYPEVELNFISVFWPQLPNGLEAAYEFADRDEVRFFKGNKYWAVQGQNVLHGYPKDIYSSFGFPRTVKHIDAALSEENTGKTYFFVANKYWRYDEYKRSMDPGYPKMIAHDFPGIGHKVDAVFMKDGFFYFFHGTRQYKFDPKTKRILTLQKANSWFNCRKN
pKi values by entry
Please treat pKi as minus the base-10 logarithm of the molar concentration.

// solved cases for pKi follow
structure_as_smiles	reading
CCC(CC)(C(=O)NO)S(=O)(=O)N1CCC(Oc2ccc(SC(F)(F)F)cc2)CC1	5.54
COCCC(CCOC)(C(=O)NO)S(=O)(=O)N1CCC(Oc2ccc(SC(F)(F)F)cc2)CC1	5.69

q: Form field: reported pKi of O=C(CCCCC1CCN(S(=O)(=O)C2(C(=O)NO)CCOCC2)CC1)N1CCc2ccccc21
a: 6.32

----------
Target: MMP-2 (Homo sapiens)
Construct: made in house; host or cells: MMP-2-transfected p2AHT2 cells
Sequence (P08253 110-660): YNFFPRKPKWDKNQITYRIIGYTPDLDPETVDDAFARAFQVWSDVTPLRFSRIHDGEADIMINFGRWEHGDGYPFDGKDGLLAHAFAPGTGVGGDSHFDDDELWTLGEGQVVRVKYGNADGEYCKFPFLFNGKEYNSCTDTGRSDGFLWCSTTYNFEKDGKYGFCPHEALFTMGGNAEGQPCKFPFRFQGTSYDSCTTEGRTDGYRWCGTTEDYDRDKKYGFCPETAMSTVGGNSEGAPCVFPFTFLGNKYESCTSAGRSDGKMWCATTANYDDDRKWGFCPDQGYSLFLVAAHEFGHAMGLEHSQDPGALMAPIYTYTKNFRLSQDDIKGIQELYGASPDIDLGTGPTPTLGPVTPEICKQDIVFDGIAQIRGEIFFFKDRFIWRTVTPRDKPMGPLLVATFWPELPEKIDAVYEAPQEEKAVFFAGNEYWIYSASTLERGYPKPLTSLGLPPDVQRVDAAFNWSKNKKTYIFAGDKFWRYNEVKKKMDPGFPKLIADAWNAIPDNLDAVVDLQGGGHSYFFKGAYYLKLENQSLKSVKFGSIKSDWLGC
Experiment: In vitro MMP inhibition, Ki determination (fluorogenic substrate II)
Format: biochemical
Conditions: value outside parentheses; read-out: MMP-2 Ki
pKi values by entry
Please treat pKi as minus the base-10 logarithm of the molar concentration.

compound	property_name	reading
COCCN1CCC(C(=O)NO)(S(=O)(=O)N2CCC(c3ccc(CCC(F)(F)C(F)(F)F)cc3)CC2)CC1 [Example 312]	pKi	9.28

q: Return pKi measured with MMP-2 (Homo sapiens) given this compound: COc1ccccc1-c1ccc(N2CCN(S(=O)(=O)C3(C(=O)NO)CCOCC3)CC2)nc1 [Example 318]
a: 7.10

q: Return pKi measured with MMP-2 (Homo sapiens) given this compound: O=C(NO)C1(S(=O)(=O)N2CCC(COCC(F)(F)C(F)(F)F)CC2)CCOCC1 [Example 376]
a: 7.57

q: Return pKi measured with MMP-2 (Homo sapiens) given this compound: O=C(NO)C1(S(=O)(=O)N2CCC(c3ccc(OCC(F)(F)C(F)F)cc3)CC2)CCN(C2CC2)CC1 [Example 350]
a: 9.05

q: Return pKi measured with MMP-2 (Homo sapiens) given this compound: O=C(NO)C1(S(=O)(=O)N2CCC(c3ccc(-c4ccccn4)cn3)CC2)CCOCC1 [Example 409]
a: 7.61

q: Return pKi measured with MMP-2 (Homo sapiens) given this compound: CCCCOc1ccc(N2CCN(S(=O)(=O)C3(C(=O)NO)CCN(C(=O)CC)CC3)CC2)cc1 [Example 274]
a: 9.08

q: Return pKi measured with MMP-2 (Homo sapiens) given this compound: O=C(NO)C1(S(=O)(=O)N2CCN(c3ncc(-c4ccc5c(c4)OCO5)s3)CC2)CCOCC1 [Example 362]
a: 9.48

q: Return pKi measured with MMP-2 (Homo sapiens) given this compound: O=C(NO)C1(S(=O)(=O)N2CCC(c3ccc(OCC(F)(F)F)cc3)CC2)CCOCC1 [Example 357]
a: 9.04

q: Return pKi measured with MMP-2 (Homo sapiens) given this compound: O=C(NO)C1(S(=O)(=O)N2CCC(N3CCN(c4ccc(Cl)cc4)CC3)CC2)CCOCC1 [Example 315]
a: 5.74

q: Return pKi measured with MMP-2 (Homo sapiens) given this compound: O=C(NO)C1(S(=O)(=O)N2CCN(c3ccc(CCCC(F)(F)F)cc3)CC2)CCOCC1 [Example 320]
a: 9.07

q: Return pKi measured with MMP-2 (Homo sapiens) given this compound: O=C(NO)C1(S(=O)(=O)N2CCN(c3cnn(-c4ccccc4)c(=O)c3)CC2)CCOCC1 [Example 322]
a: 5.10

Data credit: patent US20050209278A1
